Molecular target: TDP-43 (Homo sapiens, UniProt Q13148 1-414)
Sequence (Q13148 whole entry): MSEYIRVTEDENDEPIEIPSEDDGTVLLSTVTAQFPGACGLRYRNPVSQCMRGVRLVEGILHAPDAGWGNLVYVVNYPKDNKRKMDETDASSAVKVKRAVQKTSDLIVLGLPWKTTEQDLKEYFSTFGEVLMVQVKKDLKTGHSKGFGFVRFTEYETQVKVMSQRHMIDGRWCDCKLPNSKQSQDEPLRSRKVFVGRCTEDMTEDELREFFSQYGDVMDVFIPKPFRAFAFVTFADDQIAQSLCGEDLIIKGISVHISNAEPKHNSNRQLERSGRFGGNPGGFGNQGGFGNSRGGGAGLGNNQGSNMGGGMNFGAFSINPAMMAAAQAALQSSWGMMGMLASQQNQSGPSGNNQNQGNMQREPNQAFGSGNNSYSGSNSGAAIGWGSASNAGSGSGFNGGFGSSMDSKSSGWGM
Assay: RNA Bind-n-Seq with designed 260-mer pool; 25 mM Tris-HCl, 150 mM KCl, 3 mM MgCl2, BSA (printed 500 mg/mL), 20 units/mL SUPERase IN; pH not stated; 500 nM RNA pool, 1 h, 4 C; TDP-43 5, 50, 500 nM; high values mean tight binding
Conditions: protein: recombinant; tags: SBP (GST cleaved off with PreScission; pGEX-GST-SBP)
In all, about 9,900 sequences were measured (“r (bound/input frequency ratio)”: median about 0.7, highest 2% from about 6.5 on). The full list was thinned out, with the highest values kept by preference.
parameter: binding signal

binder	parameter	endpoint.result
ENSMUSG00000022095.204|Fam160b2 (ssRNA) RNA: GGGAGUUCUACAGUCCGACGAUCGCUUCGAUAUCCGCAUGCUAUUGCCAGGAGGUGACAUGAAAGAGGAGGAAACUCCAUGACCUCUACAUCCCCCGCAGUCCUCCCAGCGGGGGAGGACUUCUCUGCUGCUCCGAAGAACAUCAUGCACUCCUGUGUGUGUGUGUGAGUGUGUGUGUGUGUGUGUGUGUGUGUGUGUGUGUAUGUGUGUGUAUAUGUGUGUGUGUGUGUGUAUGUGUGUGUGUGUGUGUGAGUGAGUGUGUGUGUGUGUGUGUGUGUGUGAGUGUGUGUGUAUAUGUGUGUGCUCUUGCGGUCGCACUAGUGUGGAAUUCUCGGGUGUCAAGG	binding signal	7.95 R (bound/input frequency ratio)

Please look up its binding signal: ENSMUSG00000022095.206|Fam160b2 (ssRNA) RNA: GGGAGUUCUACAGUCCGACGAUCGCUUCGAUAUCCGCAUGCUAGACAUGAAAGAGGAGGAAACUCCAUGACCUCUACAUCCCCCGCAGUCCUCCCAGCGGGGGAGGACUUCUCUGCUGCUCCGAAGAACAUCAUGCACUCCUGUGUGUGUGUGUGAGUGUGUGUGUGUGUGUGUGUGUGUGUGUGUGUGUAUGUGUGUGUAUAUGUGUGUGUGUGUGUGUAUGUGUGUGUGUGUGUGUGAGUGAGUGUGUGUGUGUGUGUGUGUGUGUGAGUGUGUGUGUAUAUGUGUGUGUGUGUGUGAGAGCUCUUGCGGUCGCACUAGUGUGGAAUUCUCGGGUGUCAAGG 3.86 R (bound/input frequency ratio)

Try the binder ENSMUSG00000004113.103|Cacna1b (ssRNA) RNA: GGGAGUUCUACAGUCCGACGAUCGCUUCGAUAUCCGCAUGCUAAUCCUAAGCAGGAGGUAGCUGAGUUGAGAUGGACCCAGCAAAUCCAAAUCCUAUGUCAUGGCCUCCAGCAUCCAGGGUGGGUCCUUGGGACUUUUCUUAGGAGGGACUUUCUGAGCCUCGUGGAGAGUGUGGUUUGUCCAAAUGUGUGGCAUGGGAGAUAGGGUACCCCUGAAAGCAAGGAAAGGAGCCCAGCUGUGGCCUGGUAGCACCUGCCGGCACCAGUGAUCUCACGUCUCUUGUGGUCUUGGAGUCAAAUAGCACUCUUGCGGUCGCACUAGUGUGGAAUUCUCGGGUGUCAAGG 1.15 R (bound/input frequency ratio)

Try the binder ENSMUSG00000022095.205|Fam160b2 (ssRNA) RNA: GGGAGUUCUACAGUCCGACGAUCGCUUCGAUAUCCGCAUGCUAGGAGGUGACAUGAAAGAGGAGGAAACUCCAUGACCUCUACAUCCCCCGCAGUCCUCCCAGCGGGGGAGGACUUCUCUGCUGCUCCGAAGAACAUCAUGCACUCCUGUGUGUGUGUGUGAGUGUGUGUGUGUGUGUGUGUGUGUGUGUGUGUGUAUGUGUGUGUAUAUGUGUGUGUGUGUGUGUAUGUGUGUGUGUGUGUGUGAGUGAGUGUGUGUGUGUGUGUGUGUGUGUGAGUGUGUGUGUAUAUGUGUGUGUGUGUGCUCUUGCGGUCGCACUAGUGUGGAAUUCUCGGGUGUCAAGG 7.87 R (bound/input frequency ratio)
